Target chain: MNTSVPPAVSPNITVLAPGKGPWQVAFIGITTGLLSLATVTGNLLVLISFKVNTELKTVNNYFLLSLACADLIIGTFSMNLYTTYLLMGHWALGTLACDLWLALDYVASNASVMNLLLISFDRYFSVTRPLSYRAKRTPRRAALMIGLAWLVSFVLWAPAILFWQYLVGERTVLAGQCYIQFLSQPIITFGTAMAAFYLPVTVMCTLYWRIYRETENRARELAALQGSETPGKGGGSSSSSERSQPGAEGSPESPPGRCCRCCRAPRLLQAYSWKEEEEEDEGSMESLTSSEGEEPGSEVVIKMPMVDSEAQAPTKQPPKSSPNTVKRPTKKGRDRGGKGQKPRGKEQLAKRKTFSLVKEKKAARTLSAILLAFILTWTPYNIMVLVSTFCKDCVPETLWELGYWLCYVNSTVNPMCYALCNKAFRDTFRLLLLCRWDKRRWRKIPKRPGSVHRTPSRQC
TEST_READOUT: IC50 (nM)

Req: GET /values?readout=IC50&item= CCN(CC)C(C)(C)CNc1cc(-c2ccccc2)c(CC(C)C)nn1
Resp: 20

Req: // repeat for CCCc1cc(NCCN2CCOCC2)nnc1-c1ccccc1 and report
Resp: 1600

Req: // repeat for c1ccc2c(c1)CCCc1cc(NCCN3CCOCC3)nnc1-2 and report
Resp: 370

Req: // repeat for CCCc1nnc(NCC(C)(C)N(CC)CC)cc1-c1ccccc1 and report
Resp: 50

[I] CCN1CCCC1CNc1cc(C)c(-c2ccccc2O)nn1 (stereo not given)
[II] CCN(CC)C(C)(C)CNc1cc(C)c(-c2ccccc2)nn1
Req: // compare measured IC50 between I and II ; output the lower one Refer to your chosen item by its label in the answer.
Resp: I
(I: 8 nM, II: 2300 nM)

====

# EXPERIMENTAL_DETAILS: Lethal dose in mice after oral administration
# Format: toxicity, organism-based
# TEST_PARAMETERS: mouse, in vivo
TEST_READOUT: LD50 (mg/kg)
Write the answer as a number in mg/kg, unit excluded.

Req: GET /values?readout=LD50&item= CCN(CC)C(C)(C)CNc1cc(-c2ccccc2)c(CC(C)C)nn1
Resp: 250

====

Target protein (sequence): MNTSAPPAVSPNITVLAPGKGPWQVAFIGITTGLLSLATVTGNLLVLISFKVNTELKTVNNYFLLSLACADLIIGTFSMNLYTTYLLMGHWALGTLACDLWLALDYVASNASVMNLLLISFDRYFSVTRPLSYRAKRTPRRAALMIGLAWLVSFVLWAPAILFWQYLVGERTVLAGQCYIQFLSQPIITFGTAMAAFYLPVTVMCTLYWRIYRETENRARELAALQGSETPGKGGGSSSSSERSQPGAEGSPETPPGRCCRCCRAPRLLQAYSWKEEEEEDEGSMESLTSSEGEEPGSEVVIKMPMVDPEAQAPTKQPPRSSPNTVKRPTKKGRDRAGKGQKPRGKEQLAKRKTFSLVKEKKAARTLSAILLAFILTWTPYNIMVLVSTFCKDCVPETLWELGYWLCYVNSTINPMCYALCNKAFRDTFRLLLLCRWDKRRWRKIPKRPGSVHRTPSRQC
TEST_READOUT: pKi
Notebook: values listed as pKi are -log10 of the concentration (mol/L).

Req: GET /values?readout=pKi&item= CCCc1cc(NCC(C)(C)N(CC)CC)nnc1-c1ccccc1
Resp: 6.95

FYI, the data here is from ChEMBL document CHEMBL1126164.
